In this section, each of the compounds is paired with its reported growth.
test system: MDA-MB-468 breast; test: NCI-60 one-dose screen, 48 h (100 = growth as untreated, 0 = no growth, -100 = all killed); conditions: 10 µM unless noted
This is part of a sample that, as a whole, favours compounds with a hit. Of some 83,000 tested, about 20% had one in any assay. Calls of active or inactive are those of the source. Rule for the calls: active = growth percent below 10; inactive = the rest.
measured attribute: growth

compound | study system | observed measurement
Nc1nc(-c2ccccc2Cl)cc(-c2ccc(Cl)cc2Cl)n1 | MDA-MB-468 breast | 18.6% (inactive)
COc1cccc(/C=N\Nc2ccc([N+](=O)[O-])cn2)c1O | MDA-MB-468 breast | 26.4% (inactive)
COc1ccccc1-[n+]1cc(-c2ccc(-c3ccccc3)cc2)n2c1CCCCC2 | MDA-MB-468 breast | -23.5% (active)
COc1cc2ncnc(NC3CCC(O)CC3)c2cc1OC (stereo not drawn) | MDA-MB-468 breast | 96.7% (inactive)
N#Cc1c(-c2ccc(Cl)cc2)nc2c(-c3ccccc3)c(Nc3ccccc3)nn2c1N | MDA-MB-468 breast | 53.4% (inactive)
CCCCc1n(Cc2ccc3ccccc3n2)cc[n+]1Cc1ccc2ccccc2c1 | MDA-MB-468 breast | -31.4% (active)
CC(=O)O[C@@H]1C(=O)N(c2cnccn2)[C@H]1c1ccccc1[N+](=O)[O-] | MDA-MB-468 breast | -4.17% (active)
Cc1ccc(C(=O)C2=Cc3cc4ccccc4n3Cc3cnnn32)cc1 | MDA-MB-468 breast | 100% (inactive)
CC(C)(N)CO[C@H]1C[C@H]2CC[C@@]1(C)C2(C)C | MDA-MB-468 breast | 84% (inactive)
CCCCC(C#N)C(N)=O (stereo not drawn) | MDA-MB-468 breast | 119% (inactive)
CN(C)c1ccc2[nH]c3c(C(N)=O)cc(=O)c(=O)c=3oc2c1 | MDA-MB-468 breast | 59.2% (inactive)
C=CCN(CC#N)CC=C | MDA-MB-468 breast | 101% (inactive)
COc1ccc(-c2c(C(N)=O)c(N)n(Cc3nc4ccccc4[nH]3)c(=O)c2C#N)c(OC)c1 | MDA-MB-468 breast | 99.2% (inactive)
COc1ccc(-c2nc(N3CCCC3=O)sc2Br)cc1OC | MDA-MB-468 breast | 94.8% (inactive)
O=S(=O)(NCCNc1nccc(-c2c(-c3cccc(F)c3)nc3sccn23)n1)c1ccc(Br)cc1 | MDA-MB-468 breast | 78.3% (inactive)
N=S(c1ccccc1[N+](=O)[O-])c1ccccc1[N+](=O)[O-] | MDA-MB-468 breast | 15.1% (inactive)
Cc1ccc(-c2c3c(N)nc(-c4ccncc4)nc3nc3c2c(C)nn3-c2ccccc2)cc1 | MDA-MB-468 breast | 43.6% (inactive)
ClCCOCCOc1ccc(C2CCCCC2)cc1 | MDA-MB-468 breast | 91.2% (inactive)
COc1nc2c(c(=O)n1C)CN(c1ccccc1)C(=O)CN2C | MDA-MB-468 breast | 4.41% [100 µM] (active)
Nc1ccc2c(c1)Cc1cc(N)c(Br)cc1-2 | MDA-MB-468 breast | 81.9% (inactive)
Cc1cscc(C)c1=S | MDA-MB-468 breast | 72.3% (inactive)
CC(=O)N1N=C(c2cccc(-n3cccc3)c2)CC1c1cccc(F)c1 (stereo not drawn) | MDA-MB-468 breast | 90.4% (inactive)
Nc1c(-c2nc3ccccc3c(=O)[nH]2)nnn1-c1ccc(Cl)cc1 | MDA-MB-468 breast | 105% (inactive)
